assay: Method D: solubilization of LE by cyclodextrins, HPLC before and after centrifugation; assay type: physicochemical; settings: water with 1.0% hpcd; 1.0% HPCD; water, one week, room temperature; read-out: LE Solubilized

Compound: CCOC(=O)O[C@]1(C(=O)OCCl)CC[C@H]2[C@@H]3CCC4=CC(=O)C=C[C@]4(C)[C@H]3[C@@H](O)C[C@@]21C [LE, loteprednol etabonate]
solubility at 168 h (µg/mL): 5

----------
assay: Method D: solubilization of LE by cyclodextrins, HPLC before and after centrifugation; format: physicochemical; conditions: water with 1.0% bcd; 1.0% BCD; water, one week, room temperature; read-out: LE Solubilized
Reported property: solubility at 168 h (mg/mL)

Molecule: CCOC(=O)O[C@]1(C(=O)OCCl)CC[C@H]2[C@@H]3CCC4=CC(=O)C=C[C@]4(C)[C@H]3[C@@H](O)C[C@@]21C [LE, loteprednol etabonate]
Observed result: 0.01

Where these numbers come from: patent US5576311A
